- tested-target: T1, CD96 (UniProt P40200 22-585, limits assumed)
- T1 construct: whole, on cells
- T1 sequence (looked up): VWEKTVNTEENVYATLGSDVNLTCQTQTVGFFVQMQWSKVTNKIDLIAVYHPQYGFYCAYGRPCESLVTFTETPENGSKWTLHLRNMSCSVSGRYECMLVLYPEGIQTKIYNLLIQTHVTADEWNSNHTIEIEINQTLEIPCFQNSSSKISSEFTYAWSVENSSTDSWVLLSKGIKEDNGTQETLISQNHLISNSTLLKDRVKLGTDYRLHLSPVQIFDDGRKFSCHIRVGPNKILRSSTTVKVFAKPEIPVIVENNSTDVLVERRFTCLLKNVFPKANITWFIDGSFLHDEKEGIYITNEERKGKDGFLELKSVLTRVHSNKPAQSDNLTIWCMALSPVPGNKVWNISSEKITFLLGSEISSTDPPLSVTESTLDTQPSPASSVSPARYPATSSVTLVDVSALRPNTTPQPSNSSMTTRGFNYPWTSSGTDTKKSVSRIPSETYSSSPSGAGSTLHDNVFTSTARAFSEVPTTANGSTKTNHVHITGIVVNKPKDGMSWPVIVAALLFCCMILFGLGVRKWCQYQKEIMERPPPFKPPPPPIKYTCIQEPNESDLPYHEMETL
- protocol-summary: flow cytometry, Fc fusion at 100 nM, CD96-transfected cells

[
  {
    "binder": "variant CD155 IgV-Fc S42L/S52Q/L104E (Fc fusion, not shown: a dimerising Fc or GST) WPPPGTGDVVVQAPTQVPGFLGDSVTLPCYLQVPNMEVTHVLQLTWARHGEQGSMAVFHQTQGPSYSESKRLEFVAARLGAELRNASLRMFGLRVEDEGNYTCEFVTFPQGSRSVDIWLRVL",
    "MFI at 100 nM, MFI": 1700
  },
  {
    "binder": "variant CD155 IgV-Fc T45Q/S52L/V57L/L104E (Fc fusion, not shown: a dimerising Fc or GST) WPPPGTGDVVVQAPTQVPGFLGDSVTLPCYLQVPNMEVTHVSQLQWARHGELGSMALFHQTQGPSYSESKRLEFVAARLGAELRNASLRMFGLRVEDEGNYTCEFVTFPQGSRSVDIWLRVL",
    "MFI at 100 nM, MFI": 1530
  },
  {
    "binder": "variant CD155 IgV-Fc S52Q (Fc fusion, not shown: a dimerising Fc or GST) WPPPGTGDVVVQAPTQVPGFLGDSVTLPCYLQVPNMEVTHVSQLTWARHGEQGSMAVFHQTQGPSYSESKRLEFVAARLGAELRNASLRMFGLRVEDEGNYTCLFVTFPQGSRSVDIWLRVL",
    "MFI at 100 nM, MFI": 1820
  },
  {
    "binder": "variant CD155 IgV-Fc S42C (Fc fusion, not shown: a dimerising Fc or GST) WPPPGTGDVVVQAPTQVPGFLGDSVTLPCYLQVPNMEVTHVCQLTWARHGESGSMAVFHQTQGPSYSESKRLEFVAARLGAELRNASLRMFGLRVEDEGNYTCLFVTFPQGSRSVDIWLRVL",
    "MFI at 100 nM, MFI": 1590
  }
]
